read-out: Urokinase-type plasminogen activator receptor (uPAR), PLAUR (gene 5329); test: BSK_BE3C_uPAR: BioMAP Diversity Plus: BE3C Assay for Urokinase-type plasminogen activator receptor (uPAR) Biomarker Activity (AID 2283039); settings: primary human bronchial epithelial cells; actives raise or lower the signal
The source made the active and inactive calls. How the source made its calls: active means hit-call score of the fitted dose curve at least 0.9, where 1 is the maximum; inactive means score below 0.9.
readout: AC50

Example cases with answers are listed next.
compound=Oc1c(Br)cc(Br)cc1Br measurement="20 µM (active)"
compound=C[C@]12CC[C@@H](O)C[C@@H]1CC[C@@H]1[C@@H]2CC[C@]2(C)C(=O)CC[C@@H]12 measurement=inactive
compound=CN(C)C(=S)S measurement=inactive
compound=O=S(=O)(C(Cl)(Cl)Cl)C(Cl)(Cl)Cl measurement="7.21 µM (active)"

Ask: # get_value(readout='AC50', item= OC(Cc1ccccc1Cl)(Cn1cncn1)C1(Cl)CC1 (stereo not drawn) )
Reply: inactive

Ask: # get_value(readout='AC50', item= CC(C)(C)c1ccccc1O )
Reply: inactive

Ask: # get_value(readout='AC50', item= CCCCN(CCCC)C(=S)[S-].CCCCN(CCCC)C(=S)[S-].[Ni+2] )
Reply: inactive

Ask: # get_value(readout='AC50', item= CCOP(=O)(OCC)OC(=CCl)c1ccc(Cl)cc1Cl )
Reply: inactive

Ask: # get_value(readout='AC50', item= CC(C=O)Cc1ccc2c(c1)OCO2 (stereo not drawn) )
Reply: inactive

Ask: # get_value(readout='AC50', item= Cc1ccc2nc3sc(=O)sc3nc2c1 )
Reply: inactive

Ask: # get_value(readout='AC50', item= CCCCCCCCCCCCN(C)C )
Reply: inactive

Ask: # get_value(readout='AC50', item= N#CCCC(Br)(C#N)CBr (stereo not drawn) )
Reply: 20 µM (active)

Ask: # get_value(readout='AC50', item= O=c1oc2ccccc2c(O)c1C(CC(O)c1ccc(-c2ccc(Br)cc2)cc1)c1ccccc1 (stereo not drawn) )
Reply: 5.34 µM (active)

---

assay: ATG_EGR_CIS: Attagene CIS-FACTORIAL HepG2 Assay for human Early Growth Response 1 (EGR1) (AID 2282938); conditions: HepG2 Attagene CIS-FACTORIAL EGR reporter mRNA; actives raise or lower the signal
Active and inactive are the calls of the source. The calls were made as follows: active = hit-call score of the fitted dose curve at least 0.9, where 1 is the maximum; inactive = score below 0.9.
Valid outcomes are listed here; reply with one: label 1 (active), label 0 (inactive)

molecule=O=C(Cl)OCCOCCOC(=O)Cl class_label="label 0"
molecule=O=C(N[C@H]1CN2CCC1CC2)c1ccc2c(c1)OCCO2 class_label="label 0"
molecule=O=C(NC(=O)c1c(F)cccc1F)Nc1ccc(Cl)cc1 class_label="label 0"
molecule=Clc1cccc(Cl)c1Cl class_label="label 0"
molecule="CCOC(=O)OC1=C(c2cc(C)ccc2C)C(=O)NC12CCC(OC)CC2 (stereo not given)" class_label="label 0"
molecule=CCCCCCCCCCCCOS(=O)(=O)O class_label="label 0"
molecule=O=C(O)c1cc(I)cc(I)c1I class_label="label 0"
molecule=OC(c1ccc(Cl)cc1)(c1ccc(Cl)cc1)c1cccnc1 class_label="label 0"

Ask: Give the logged outcome of this assay for the following molecule: CCCCCCCCCCCCc1cccc(S(=O)(=O)O)c1
Reply: label 0

Ask: Give the logged outcome of this assay for the following molecule: CS(=O)(=O)c1ccc(C(=O)C2C(=O)CCCC2=O)c(Cl)c1COCC(F)(F)F
Reply: label 0

Ask: Give the logged outcome of this assay for the following molecule: N#CCC#N
Reply: label 0

Ask: Give the logged outcome of this assay for the following molecule: CC(C)O.CC(C)O.OCCN(CCO)CCO.OCCN(CCO)CCO.[Ti]
Reply: label 0

Ask: Give the logged outcome of this assay for the following molecule: c1csc(-c2ccc(-c3cccs3)s2)c1
Reply: label 1

Ask: Give the logged outcome of this assay for the following molecule: CCN(CC)C(=O)C(Cl)=C(C)OP(=O)(OC)OC
Reply: label 0

Ask: Give the logged outcome of this assay for the following molecule: CCOC(=O)c1ccccc1S(=O)(=O)NC(=O)Nc1nc(Cl)cc(OC)n1
Reply: label 0

Ask: Give the logged outcome of this assay for the following molecule: FC(F)OCC(F)(F)C(F)(F)F
Reply: label 0

Ask: Give the logged outcome of this assay for the following molecule: C=C(C)[C@@H]1CC=C(C=O)CC1
Reply: label 0

Ask: Give the logged outcome of this assay for the following molecule: O=c1[nH]c2ccccc2n1C1CCN(CCCC(c2ccc(F)cc2)c2ccc(F)cc2)CC1
Reply: label 0

Ask: Give the logged outcome of this assay for the following molecule: O=S(=O)(F)C(F)(F)C(F)(F)C(F)(F)C(F)(F)F
Reply: label 0

---

assay: ATG_NRF2_ARE_CIS: Attagene CIS-FACTORIAL HepG2 Assay for human Nuclear Factor Erythroid 2 Related Factor 2 (NFR2) response to Antioxidant Response Elements (ARE) (AID 2282992); settings: HepG2 Attagene ARE/NRF2 reporter, transcription factor activity; actives raise or lower the signal
Active and inactive are the calls of the source. Rule for the calls: active = hit-call score of the fitted dose curve at least 0.9, where 1 is the maximum; inactive = score below 0.9.
Valid outcomes are listed here; reply with one: active, inactive

compound="CC(O)(CS(=O)(=O)c1ccc(F)cc1)C(=O)Nc1ccc(C#N)c(C(F)(F)F)c1 (centres undefined)" class_label=active
compound=CNC(=O)N(C)c1nc2ccccc2s1 class_label=active
compound=Cc1ccccc1OP(=O)(Oc1ccccc1)Oc1ccccc1 class_label=active
compound=C=CC(=O)OCC(COC(=O)C=C)(COC(=O)C=C)COC(=O)C=C class_label=inactive
compound=CCOC(=O)c1ccccc1S(=O)(=O)NC(=O)Nc1nc(Cl)cc(OC)n1 class_label=inactive

Ask: Give the logged outcome of this assay for the following compound: C[N+](C)(C)Cc1ccccc1
Reply: inactive

Ask: Give the logged outcome of this assay for the following compound: O=NN1CCCCCCC1
Reply: active

Ask: Give the logged outcome of this assay for the following compound: CCCCCCCCCCCCCCC(Br)C(=O)O (centres undefined)
Reply: active

---

read-out: Matrix Metallopeptidase 9 (MMP9), MMP9 (gene 4318); test: BSK_KF3CT_MMP9: BioMAP Diversity Plus: KF3CT Assay for Matrix Metallopeptidase 9 (MMP9) Biomarker Activity (AID 2283074); settings: primary human keratinocytes with fibroblasts; actives raise or lower the signal
The source made the active and inactive calls. The calls were made as follows: active = hit-call score of the fitted dose curve at least 0.9, where 1 is the maximum; inactive = score below 0.9.
Valid outcomes are listed here; reply with one: active, inactive

Below are worked cases with known answers.
molecule="O=c1oc2ccccc2c(O)c1C(CC(O)c1ccc(-c2ccc(Br)cc2)cc1)c1ccccc1 (configuration not stated)" class_label=active
molecule=CCCCCCCCCCCCc1cccc(S(=O)(=O)O)c1 class_label=active
molecule="C=CC(Cl)CCl (configuration not stated)" class_label=inactive

Ask: Give the logged outcome of this assay for the following molecule: CC1(C)[C@H](C(=O)O[C@H](C#N)c2cccc(Oc3ccccc3)c2)[C@@H]1/C=C(\Cl)C(F)(F)F
Reply: active

Ask: Give the logged outcome of this assay for the following molecule: Cc1ccc(OP(=O)(Oc2ccc(C)cc2C)Oc2ccc(C)cc2C)c(C)c1
Reply: active

Ask: Give the logged outcome of this assay for the following molecule: CCN(CC)C(=O)C(Cl)=C(C)OP(=O)(OC)OC
Reply: inactive

Ask: Give the logged outcome of this assay for the following molecule: Oc1c(Cl)cc(Cl)cc1Cl
Reply: inactive

Ask: Give the logged outcome of this assay for the following molecule: c1ccc(-c2cccc(-c3ccccc3)c2)cc1
Reply: active

Ask: Give the logged outcome of this assay for the following molecule: C[C@]12CC[C@@H](O)C[C@@H]1CC[C@@H]1[C@@H]2CC[C@]2(C)C(=O)CC[C@@H]12
Reply: inactive

Ask: Give the logged outcome of this assay for the following molecule: CCOP(=S)(OCC)SCS(=O)(=O)C(C)(C)C
Reply: inactive

Ask: Give the logged outcome of this assay for the following molecule: OC(Cc1ccccc1Cl)(Cn1[nH]cnc1=S)C1(Cl)CC1 (configuration not stated)
Reply: inactive

Ask: Give the logged outcome of this assay for the following molecule: CC(C)(C)c1cc([N+](=O)[O-])cc(C(C)(C)C)c1O
Reply: active

---

read-out: Interleukin-1 alpha (IL1a), IL1A (gene 3552); experiment: BSK_LPS_IL1a: BioMAP Diversity Plus: LPS Assay for Interleukin-1 alpha (IL1a) Biomarker Activity (AID 2283080); settings: primary human HUVEC with PBMC; actives raise or lower the signal
Active and inactive are the calls of the source. The calls were made as follows: active = hit-call score of the fitted dose curve at least 0.9, where 1 is the maximum; inactive = score below 0.9.
Valid outcomes are listed here; reply with one: active, inactive

compound="C=CC(Cl)CCl (stereo not drawn)" class_label=inactive
compound=CCOP(=O)(OCC)OC(=CCl)c1ccc(Cl)cc1Cl class_label=inactive

Ask: Give the logged outcome of this assay for the following compound: Nc1ccc(N)cc1
Reply: inactive

Ask: Give the logged outcome of this assay for the following compound: Cc1ccccc1OP(=O)(Oc1ccccc1C)Oc1ccccc1C
Reply: active

Ask: Give the logged outcome of this assay for the following compound: COc1ccccc1N
Reply: inactive

Ask: Give the logged outcome of this assay for the following compound: O=[N+]([O-])c1cccc2ccccc12
Reply: inactive

Ask: Give the logged outcome of this assay for the following compound: N#CCCC(Br)(C#N)CBr (stereo not drawn)
Reply: active

Ask: Give the logged outcome of this assay for the following compound: CCOP(=S)(OCC)OP(=S)(OCC)OCC
Reply: inactive

Ask: Give the logged outcome of this assay for the following compound: CC(C)(C)c1cc([N+](=O)[O-])cc(C(C)(C)C)c1O
Reply: inactive

Ask: Give the logged outcome of this assay for the following compound: C[C@]12CC[C@@H](O)C[C@@H]1CC[C@@H]1[C@@H]2CC[C@]2(C)C(=O)CC[C@@H]12
Reply: inactive
